Assay: Inhibition of 5'-biotin-labeled c-Myc Pu18 G-quadruplex DNA (unknown origin) interaction with His-tagged NM23-H2 assessed as ratio of Kd for NM23-H2-DNA complex in presence of compound to Kd for […]-DNA complex in absence of compound at 20 uM preincubated with NM23-H2 for 1 hr followed by addition of DNA measured after overnight incubation by ELISA
Measured Attribute: Ratio

Which Ratio reading was recorded for the compound CN1CCN(c2cc3nc4n(c(=O)c3cc2F)CC/C4=C\c2ccc(C(=O)NCCN3CCCCC3)cc2)CC1 ?
1.4 to 4.3

So what does the record say about Ratio for O=C(CCN1CCCCC1)Nc1ccc(/C=C2\CCn3c2nc2cc(N4CCCCC4)c(F)cc2c3=O)cc1 ?
1.4 to 4.3

Param item = CN1CCN(c2cc3nc4n(c(=O)c3cc2F)CCC/C4=C\c2ccc(NC(=O)CN3CCN(CCO)CC3)cc2)CC1 ; retrieve measured Ratio.
< 1.4
